Reported values of koff for individual entries
target: human IL-6 (human, UniProt P05231 30-212); experiment: SPR Biacore, supernatant, Protein A capture, 37 C
Sequence (P05231 30-212 limits assumed): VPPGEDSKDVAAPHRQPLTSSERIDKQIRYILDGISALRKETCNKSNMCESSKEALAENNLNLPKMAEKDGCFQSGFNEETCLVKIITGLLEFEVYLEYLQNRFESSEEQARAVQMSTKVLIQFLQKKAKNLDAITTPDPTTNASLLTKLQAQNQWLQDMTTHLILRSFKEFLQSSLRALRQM
REPORTED_ENDPOINT: koff (s⁻¹)

BINDER	REPORTED_ENDPOINT	TEST_VALUE
Anti-IL-6 antibody, heavy chain S35H, G66D, L100Q / light chain WT (antibody, IgG1, V domains shown, IgG1; variable domains only) VH: EVQLVESGGGLVQPGGSLRLSCAASGFTFSPFAMHWVRQAPGKGLEWVAKISPGGSWTYYSDTVTDRFTFSLDTSKSTAYLQMNSLRAEDTAVYYCARQQWGYYALDIWGQGTLVTVSS VL: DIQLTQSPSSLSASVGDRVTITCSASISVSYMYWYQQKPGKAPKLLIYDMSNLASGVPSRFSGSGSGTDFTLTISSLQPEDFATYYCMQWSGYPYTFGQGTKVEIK	koff	0.00064
Anti-IL-6 antibody, heavy chain S35H, G66D, Q99S / light chain M32L, M50D, N52S, M88Q (antibody, IgG1, V domains shown, IgG1; variable domains only; VL is variant III) VH: EVQLVESGGGLVQPGGSLRLSCAASGFTFSPFAMHWVRQAPGKGLEWVAKISPGGSWTYYSDTVTDRFTFSLDTSKSTAYLQMNSLRAEDTAVYYCARSLWGYYALDIWGQGTLVTVSS VL: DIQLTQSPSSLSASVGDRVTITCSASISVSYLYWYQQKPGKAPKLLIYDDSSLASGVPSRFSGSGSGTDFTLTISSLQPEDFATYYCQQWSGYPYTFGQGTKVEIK	koff	0.00154
Anti-IL-6 antibody, heavy chain S35H, G66D, Q99E / light chain M32L, M50D, N52S, M88Q (antibody, IgG1, V domains shown, IgG1; variable domains only; VL is variant III) VH: EVQLVESGGGLVQPGGSLRLSCAASGFTFSPFAMHWVRQAPGKGLEWVAKISPGGSWTYYSDTVTDRFTFSLDTSKSTAYLQMNSLRAEDTAVYYCARELWGYYALDIWGQGTLVTVSS VL: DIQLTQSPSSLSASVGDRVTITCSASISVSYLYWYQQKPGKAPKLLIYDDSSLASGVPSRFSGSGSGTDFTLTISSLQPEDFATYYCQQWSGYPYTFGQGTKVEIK	koff	0.00089
Anti-IL-6 antibody, heavy chain S35H, G66D, Q99R / light chain M32L, M50D, N52S, M88Q (antibody, IgG1, V domains shown, IgG1; variable domains only; VL is variant III) VH: EVQLVESGGGLVQPGGSLRLSCAASGFTFSPFAMHWVRQAPGKGLEWVAKISPGGSWTYYSDTVTDRFTFSLDTSKSTAYLQMNSLRAEDTAVYYCARRLWGYYALDIWGQGTLVTVSS VL: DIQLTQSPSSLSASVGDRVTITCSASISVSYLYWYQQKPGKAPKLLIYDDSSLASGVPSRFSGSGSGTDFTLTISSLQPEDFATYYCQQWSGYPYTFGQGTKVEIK	koff	0.000657
Anti-IL-6 antibody, heavy chain S35H, G66D, L100I / light chain M32L, M50D, N52S, M88Q (antibody, IgG1, V domains shown, IgG1; variable domains only; VL is variant III) VH: EVQLVESGGGLVQPGGSLRLSCAASGFTFSPFAMHWVRQAPGKGLEWVAKISPGGSWTYYSDTVTDRFTFSLDTSKSTAYLQMNSLRAEDTAVYYCARQIWGYYALDIWGQGTLVTVSS VL: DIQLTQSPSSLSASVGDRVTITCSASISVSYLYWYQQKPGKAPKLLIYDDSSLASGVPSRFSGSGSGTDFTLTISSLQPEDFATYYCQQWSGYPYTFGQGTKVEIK	koff	0.000712
